Test: AUC (0 to 24 hrs) in Balb/c mouse at 1 mg/kg, iv or 3 mg/kg, po by LC-MS/MS analysis
Type: ADME, organism-based
Conditions: in vivo

chemical structure: COc1ncc(-c2cc(OC[C@@H]3CCCN(CCC4CCOCC4)C3)c3cnn(C)c3n2)cc1NS(C)(=O)=O
AUC(0-t) (ng·h/mL): 1420

----------
Assay: Intrinsic clearance in CD-1 mouse liver microsomes at 0.2 uM up to 45 mins in presence of NADPH by LC-MS/MS analysis
Format: ADME, microsome
Details: read-out: CLH
value kind: CLint scaled at 0.2 µM (mL/min/kg)

chemical structure: COc1ncc(-c2cc(OC[C@@H]3CCCN(Cc4c(C)nn(C)c4C)C3)c3cnn(C)c3n2)cc1NS(C)(=O)=O
prefix operator: >
meas value: 1000
//
chemical structure: COc1ncc(-c2cc(OC[C@@H]3CCCN(CC4CCOCC4)C3)c3cnn(C)c3n2)cc1NS(C)(=O)=O
prefix operator: =
meas value: 340
//
chemical structure: COc1ncc(-c2cc(OC[C@@H]3CCCN(CC4(C)COC4)C3)c3cnn(C)c3n2)cc1NS(C)(=O)=O
prefix operator: =
meas value: 910
//
chemical structure: COc1ncc(-c2cc(OC[C@@H]3CCCN(CCC4CCOCC4)C3)c3cnn(C)c3n2)cc1NS(C)(=O)=O
prefix operator: =
meas value: 88
//
chemical structure: COc1ncc(-c2cc(OC[C@@H]3CCCN(Cc4cn(C)nc4C)C3)c3cnn(C)c3n2)cc1NS(C)(=O)=O
prefix operator: >
meas value: 1000
//
chemical structure: COc1ncc(-c2cc(O[C@@H]3CCN(Cc4c(C)nn(C)c4C)C3)c3cnn(C)c3n2)cc1NS(C)(=O)=O
prefix operator: =
meas value: 620

----------
Test: Half life in Balb/c mouse at 1 mg/kg, iv or 3 mg/kg, po by LC-MS/MS analysis
Type: ADME, organism-based
Conditions: in vivo

chemical structure: COc1ncc(-c2cc(OC[C@@H]3CCCN(CCC4CCOCC4)C3)c3cnn(C)c3n2)cc1NS(C)(=O)=O
half-life, h: 2.63

----------
Test: Volume of distribution at steady state in Balb/c mouse at 1 mg/kg, iv or 3 mg/kg, po by LC-MS/MS analysis
Assay type: ADME, organism-based
Conditions: in vivo, read-out: Vdss
value kind: Vd (L/kg)

chemical structure: COc1ncc(-c2cc(OC[C@@H]3CCCN(CCC4CCOCC4)C3)c3cnn(C)c3n2)cc1NS(C)(=O)=O
value kind: Vd
meas value: 5.64

----------
Experiment: Oral bioavailability in Balb/c mouse at 3 mg/kg by LC-MS/MS analysis
Assay type: ADME, organism-based
Conditions: in vivo

chemical structure: COc1ncc(-c2cc(OC[C@@H]3CCCN(CCC4CCOCC4)C3)c3cnn(C)c3n2)cc1NS(C)(=O)=O
bioavailability, %: 73

----------
Assay: Tmax in Balb/c mouse at 1 mg/kg, iv or 3 mg/kg, po by LC-MS/MS analysis
Format: ADME, organism-based
Conditions: in vivo
value kind: Tmax (min)

chemical structure: COc1ncc(-c2cc(OC[C@@H]3CCCN(CCC4CCOCC4)C3)c3cnn(C)c3n2)cc1NS(C)(=O)=O
meas value: 30

----------
Target: PI3-kinase p110-delta/p85-alpha (Homo sapiens)
Sequence (P27986 whole entry): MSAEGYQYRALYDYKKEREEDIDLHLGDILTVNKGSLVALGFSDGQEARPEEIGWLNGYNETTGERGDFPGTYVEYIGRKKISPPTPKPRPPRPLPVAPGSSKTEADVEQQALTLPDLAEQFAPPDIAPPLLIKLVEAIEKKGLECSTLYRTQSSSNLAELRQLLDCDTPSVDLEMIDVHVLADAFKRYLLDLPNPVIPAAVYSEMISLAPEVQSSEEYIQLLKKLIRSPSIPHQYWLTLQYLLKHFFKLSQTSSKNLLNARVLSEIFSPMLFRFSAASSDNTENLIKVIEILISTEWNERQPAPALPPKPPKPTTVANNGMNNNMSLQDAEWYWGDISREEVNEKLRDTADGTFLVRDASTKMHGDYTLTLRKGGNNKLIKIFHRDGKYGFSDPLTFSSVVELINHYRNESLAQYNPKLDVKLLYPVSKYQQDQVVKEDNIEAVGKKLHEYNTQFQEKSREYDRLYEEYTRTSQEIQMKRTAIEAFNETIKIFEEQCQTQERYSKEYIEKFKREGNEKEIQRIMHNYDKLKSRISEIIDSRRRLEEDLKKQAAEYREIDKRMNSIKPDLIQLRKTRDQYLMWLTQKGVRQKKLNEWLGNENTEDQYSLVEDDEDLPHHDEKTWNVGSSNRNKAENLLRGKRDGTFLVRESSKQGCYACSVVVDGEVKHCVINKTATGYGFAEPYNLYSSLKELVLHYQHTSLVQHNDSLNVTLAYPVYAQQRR
Sequence (O00329 whole entry): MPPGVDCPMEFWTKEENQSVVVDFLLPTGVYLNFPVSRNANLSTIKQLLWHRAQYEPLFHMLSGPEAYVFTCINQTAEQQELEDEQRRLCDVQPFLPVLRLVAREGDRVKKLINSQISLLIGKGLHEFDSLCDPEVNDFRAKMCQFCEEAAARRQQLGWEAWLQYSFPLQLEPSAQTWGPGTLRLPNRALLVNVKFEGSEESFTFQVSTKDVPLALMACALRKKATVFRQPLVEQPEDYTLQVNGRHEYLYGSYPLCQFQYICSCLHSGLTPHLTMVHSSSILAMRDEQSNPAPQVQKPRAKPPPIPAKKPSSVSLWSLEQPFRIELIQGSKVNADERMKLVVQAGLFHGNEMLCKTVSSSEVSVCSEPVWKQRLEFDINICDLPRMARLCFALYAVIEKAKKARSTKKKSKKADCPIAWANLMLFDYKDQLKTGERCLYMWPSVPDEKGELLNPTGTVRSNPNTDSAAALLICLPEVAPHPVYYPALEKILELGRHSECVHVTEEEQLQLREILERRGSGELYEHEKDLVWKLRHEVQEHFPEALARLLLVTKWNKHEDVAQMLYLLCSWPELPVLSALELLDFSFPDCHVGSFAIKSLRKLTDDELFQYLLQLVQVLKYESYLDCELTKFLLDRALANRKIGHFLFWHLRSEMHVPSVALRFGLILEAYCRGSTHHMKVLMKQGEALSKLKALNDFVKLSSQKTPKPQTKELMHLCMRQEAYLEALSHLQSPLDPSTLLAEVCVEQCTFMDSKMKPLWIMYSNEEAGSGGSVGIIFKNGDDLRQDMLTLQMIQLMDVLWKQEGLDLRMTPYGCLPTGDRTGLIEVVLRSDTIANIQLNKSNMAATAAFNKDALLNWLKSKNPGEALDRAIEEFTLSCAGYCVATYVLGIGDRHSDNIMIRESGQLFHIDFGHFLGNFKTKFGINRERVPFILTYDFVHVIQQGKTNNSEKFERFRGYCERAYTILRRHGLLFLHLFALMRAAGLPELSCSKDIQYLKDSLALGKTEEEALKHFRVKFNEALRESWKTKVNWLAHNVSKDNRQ
Experiment: Inhibition of recombinant human full length N-terminal His6-tagged PI3K p110delta/p85alpha expressed in baculovirus infected Sf21 cells using PIP2 as substrate after 35 to 40 mins by HTRF assay
Just a reminder that ties go to FALSE: only IC50 strictly below 5 nM counts as TRUE.

molecule: COc1ncc(-c2cc(OC[C@@H]3CCCN(C(=O)c4cccnn4)C3)c3cnn(C)c3n2)cc1NS(C)(=O)=O
class assignment: FALSE

molecule: COc1ncc(-c2cc(OC3CN(C(=O)C4CCOCC4)C3)c3cnn(C)c3n2)cc1NS(C)(=O)=O
class assignment: FALSE

molecule: COc1ncc(-c2cc(OC[C@H]3CCCN(C(=O)C4CCOCC4)C3)c3cnn(C)c3n2)cc1NS(C)(=O)=O
class assignment: FALSE

molecule: COc1ncc(-c2cc(OC[C@@H]3CCCN(CC4CCOCC4)C3)c3cnn(C)c3n2)cc1NS(C)(=O)=O
class assignment: TRUE

molecule: COc1ncc(-c2cc(OC[C@@H]3CCCN(C(=O)CC4CCOC4)C3)c3cnn(C)c3n2)cc1NS(C)(=O)=O (stereo partly specified)
class assignment: TRUE

molecule: COc1ncc(-c2cc(OC[C@@H]3CCCN(Cc4c(C)nn(C)c4C)C3)c3cnn(C)c3n2)cc1NS(C)(=O)=O
class assignment: TRUE
